- reported-conditions: in 2-propoxyethanol, 298.2 K
observed-property: solubility (mole fraction)
// no unit, no text: just the number

# input May I ask what solubility (mole fraction) has been recorded for CC(=O)Oc1ccc(C2CC(=O)c3c(OC(C)=O)cc(OC(C)=O)cc3O2)cc1 (stereo unspecified) ?
# output 0.00775

* * *

- reported-conditions: in n-butanol, 278.2 K
observed-property: solubility (mole fraction)
// no unit, no text: just the number

# input May I ask what solubility (mole fraction) has been recorded for CC(=O)Oc1ccc(C2CC(=O)c3c(OC(C)=O)cc(OC(C)=O)cc3O2)cc1 (stereo unspecified) ?
# output 0.000228

* * *

- reported-conditions: in 2-methoxyethanol, 288.2 K
observed-property: solubility (mole fraction)

# input May I ask what solubility (mole fraction) has been recorded for CC(=O)Oc1ccc(C2CC(=O)c3c(OC(C)=O)cc(OC(C)=O)cc3O2)cc1 (stereo unspecified) ?
# output 0.0108

* * *

- reported-conditions: in 2-propoxyethanol, 288.2 K
observed-property: solubility (mole fraction)
// no unit, no text: just the number

# input May I ask what solubility (mole fraction) has been recorded for CC(=O)Oc1ccc(C2CC(=O)c3c(OC(C)=O)cc(OC(C)=O)cc3O2)cc1 (stereo unspecified) ?
# output 0.00629

* * *

- reported-conditions: in methanol, 318.2 K
observed-property: solubility (mole fraction)

# input May I ask what solubility (mole fraction) has been recorded for CC(=O)Oc1ccc(C2CC(=O)c3c(OC(C)=O)cc(OC(C)=O)cc3O2)cc1 (stereo unspecified) ?
# output 0.00407

* * *

- reported-conditions: in n-hexanol, 318.2 K
observed-property: solubility (mole fraction)
// no unit, no text: just the number

# input May I ask what solubility (mole fraction) has been recorded for CC(=O)Oc1ccc(C2CC(=O)c3c(OC(C)=O)cc(OC(C)=O)cc3O2)cc1 (stereo unspecified) ?
# output 6.4e-05

* * *

- reported-conditions: in n-propanol, 308.2 K
observed-property: solubility (mole fraction)

# input May I ask what solubility (mole fraction) has been recorded for CC(=O)Oc1ccc(C2CC(=O)c3c(OC(C)=O)cc(OC(C)=O)cc3O2)cc1 (stereo unspecified) ?
# output 0.00165

* * *

- reported-conditions: in n-butanol, 298.2 K
observed-property: solubility (mole fraction)
// no unit, no text: just the number

# input May I ask what solubility (mole fraction) has been recorded for CC(=O)Oc1ccc(C2CC(=O)c3c(OC(C)=O)cc(OC(C)=O)cc3O2)cc1 (stereo unspecified) ?
# output 0.000491

* * *

- reported-conditions: in ethyl acetate, 298.2 K
observed-property: solubility (mole fraction)
// no unit, no text: just the number

# input May I ask what solubility (mole fraction) has been recorded for CC(=O)Oc1ccc(C2CC(=O)c3c(OC(C)=O)cc(OC(C)=O)cc3O2)cc1 (stereo unspecified) ?
# output 0.045

* * *

- reported-conditions: in n-pentanol, 318.2 K
observed-property: solubility (mole fraction)
// no unit, no text: just the number

# input May I ask what solubility (mole fraction) has been recorded for CC(=O)Oc1ccc(C2CC(=O)c3c(OC(C)=O)cc(OC(C)=O)cc3O2)cc1 (stereo unspecified) ?
# output 0.00141

* * *

- reported-conditions: in n-propanol, 298.2 K
observed-property: solubility (mole fraction)
// no unit, no text: just the number

# input May I ask what solubility (mole fraction) has been recorded for CC(=O)Oc1ccc(C2CC(=O)c3c(OC(C)=O)cc(OC(C)=O)cc3O2)cc1 (stereo unspecified) ?
# output 0.00127

* * *

- reported-conditions: in ethanol, 278.2 K
observed-property: solubility (mole fraction)
// no unit, no text: just the number

# input May I ask what solubility (mole fraction) has been recorded for CC(=O)Oc1ccc(C2CC(=O)c3c(OC(C)=O)cc(OC(C)=O)cc3O2)cc1 (stereo unspecified) ?
# output 0.000721

* * *

- reported-conditions: in 2-methoxyethanol, 318.2 K
observed-property: solubility (mole fraction)
// no unit, no text: just the number

# input May I ask what solubility (mole fraction) has been recorded for CC(=O)Oc1ccc(C2CC(=O)c3c(OC(C)=O)cc(OC(C)=O)cc3O2)cc1 (stereo unspecified) ?
# output 0.0356

* * *

- reported-conditions: in ethyl acetate, 288.2 K
observed-property: solubility (mole fraction)
// no unit, no text: just the number

# input May I ask what solubility (mole fraction) has been recorded for CC(=O)Oc1ccc(C2CC(=O)c3c(OC(C)=O)cc(OC(C)=O)cc3O2)cc1 (stereo unspecified) ?
# output 0.034

* * *

- reported-conditions: in acetone, 318.2 K
observed-property: solubility (mole fraction)
// no unit, no text: just the number

# input May I ask what solubility (mole fraction) has been recorded for CC(=O)Oc1ccc(C2CC(=O)c3c(OC(C)=O)cc(OC(C)=O)cc3O2)cc1 (stereo unspecified) ?
# output 0.166

* * *

- reported-conditions: in THF, 278.2 K
observed-property: solubility (mole fraction)

# input May I ask what solubility (mole fraction) has been recorded for CC(=O)Oc1ccc(C2CC(=O)c3c(OC(C)=O)cc(OC(C)=O)cc3O2)cc1 (stereo unspecified) ?
# output 0.0413

* * *

- reported-conditions: in n-hexanol, 308.2 K
observed-property: solubility (mole fraction)
// no unit, no text: just the number

# input May I ask what solubility (mole fraction) has been recorded for CC(=O)Oc1ccc(C2CC(=O)c3c(OC(C)=O)cc(OC(C)=O)cc3O2)cc1 (stereo unspecified) ?
# output 4.6e-05

* * *

- reported-conditions: in isopropanol, 308.2 K
observed-property: solubility (mole fraction)
// no unit, no text: just the number

# input May I ask what solubility (mole fraction) has been recorded for CC(=O)Oc1ccc(C2CC(=O)c3c(OC(C)=O)cc(OC(C)=O)cc3O2)cc1 (stereo unspecified) ?
# output 0.00102

* * *

- reported-conditions: in isopropanol, 318.2 K
observed-property: solubility (mole fraction)
// no unit, no text: just the number

# input May I ask what solubility (mole fraction) has been recorded for CC(=O)Oc1ccc(C2CC(=O)c3c(OC(C)=O)cc(OC(C)=O)cc3O2)cc1 (stereo unspecified) ?
# output 0.00152

* * *

- reported-conditions: in n-pentanol, 308.2 K
observed-property: solubility (mole fraction)
// no unit, no text: just the number

# input May I ask what solubility (mole fraction) has been recorded for CC(=O)Oc1ccc(C2CC(=O)c3c(OC(C)=O)cc(OC(C)=O)cc3O2)cc1 (stereo unspecified) ?
# output 0.00101

* * *

- reported-conditions: in 2-propoxyethanol, 318.2 K
observed-property: solubility (mole fraction)
// no unit, no text: just the number

# input May I ask what solubility (mole fraction) has been recorded for CC(=O)Oc1ccc(C2CC(=O)c3c(OC(C)=O)cc(OC(C)=O)cc3O2)cc1 (stereo unspecified) ?
# output 0.0116

* * *

- reported-conditions: in sec-butanol, 278.2 K
observed-property: solubility (mole fraction)

# input May I ask what solubility (mole fraction) has been recorded for CC(=O)Oc1ccc(C2CC(=O)c3c(OC(C)=O)cc(OC(C)=O)cc3O2)cc1 (stereo unspecified) ?
# output 0.000216

* * *

- reported-conditions: in ethyl acetate, 278.2 K
observed-property: solubility (mole fraction)
// no unit, no text: just the number

# input May I ask what solubility (mole fraction) has been recorded for CC(=O)Oc1ccc(C2CC(=O)c3c(OC(C)=O)cc(OC(C)=O)cc3O2)cc1 (stereo unspecified) ?
# output 0.022

* * *

- reported-conditions: in n-hexanol, 288.2 K
observed-property: solubility (mole fraction)
// no unit, no text: just the number

# input May I ask what solubility (mole fraction) has been recorded for CC(=O)Oc1ccc(C2CC(=O)c3c(OC(C)=O)cc(OC(C)=O)cc3O2)cc1 (stereo unspecified) ?
# output 2.4e-05

* * *

- reported-conditions: in ethanol, 308.2 K
observed-property: solubility (mole fraction)
// no unit, no text: just the number

# input May I ask what solubility (mole fraction) has been recorded for CC(=O)Oc1ccc(C2CC(=O)c3c(OC(C)=O)cc(OC(C)=O)cc3O2)cc1 (stereo unspecified) ?
# output 0.00175

* * *

- reported-conditions: in ethanol, 298.2 K
observed-property: solubility (mole fraction)
// no unit, no text: just the number

# input May I ask what solubility (mole fraction) has been recorded for CC(=O)Oc1ccc(C2CC(=O)c3c(OC(C)=O)cc(OC(C)=O)cc3O2)cc1 (stereo unspecified) ?
# output 0.00132

* * *

- reported-conditions: in THF, 298.2 K
observed-property: solubility (mole fraction)
// no unit, no text: just the number

# input May I ask what solubility (mole fraction) has been recorded for CC(=O)Oc1ccc(C2CC(=O)c3c(OC(C)=O)cc(OC(C)=O)cc3O2)cc1 (stereo unspecified) ?
# output 0.058

* * *

- reported-conditions: in 2-butoxyethanol, 298.2 K
observed-property: solubility (mole fraction)
// no unit, no text: just the number

# input May I ask what solubility (mole fraction) has been recorded for CC(=O)Oc1ccc(C2CC(=O)c3c(OC(C)=O)cc(OC(C)=O)cc3O2)cc1 (stereo unspecified) ?
# output 0.00337
